tested on: HI650 (Lung Adenocarcinoma); assay: Cell viability analysis, lung cancer HI650; type: cell-based, human; settings: Homo sapiens, NCI-H1650; drug 10 μM, 72 hours, WST-1, OD450 nm; read-out: cell viability (survival rate), H1650
Structures can show the parent of a compound that is named as a salt.
measurementKind: viability at 10 µM (%)

O=C(O)c1ccccc1 [Benzoic acid] | 57.2
CCC[S+]([O-])c1ccc2[nH]c(NC(=O)OC)nc2c1 (centres unmarked) [Albendazole Oxide (Ricobendazole), Albendazole Oxide] | 59.5
Clc1ccc(C(Cn2ccnc2)OCc2c(Cl)cccc2Cl)c(Cl)c1 (centres unmarked) [Isoconazole nitrate (Travogen), Isoconazole nitrate] | 102
CCC[C@H](NC(=O)[C@@H]1[C@H]2CCC[C@H]2CN1C(=O)[C@@H](NC(=O)[C@@H](NC(=O)c1cnccn1)C1CCCCC1)C(C)(C)C)C(=O)C(=O)NC1CC1 [Telaprevir (VX-950), Telaprevir] | 51.6
Cc1cc(C(C)(C)C)cc(C)c1CC1=NCCN1 [Xylometazoline HCl] | 33.4

====

system: A375 (Amelanotic Melanoma); test: Cell viability analysis, skin cancer A375; type: cell-based, human; conditions: Homo sapiens, A-375, 72 h, read-out: cell viability (survival rate), A375, drug 10 μM, 72 hours, WST-1, OD450 nm
Structures can show the parent of a compound that is named as a salt. Positions of bridges follow the written chain, without caps; N, C: chain ends. Non-standard residues stand in square brackets, D forms with d. Residues, ends and D or L forms follow the SMILES beside them. *: point of attachment. Ileψ(thiazoline)Cys = CC[C@H](C)[C@H](N)C1=N[C@H](C(=O)*)CS1; dOrn = NCCC[C@@H](N)C(=O)O
Lab note: cut-off is 70%. Strictly less in viability at 10 µM is yes. Exactly 70% or more is no.

Nc1ccn([C@H]2CC[C@@H](CO)O2)c(=O)n1 [Zalcitabine] | no
Clc1cccc(Cl)c1N=C1NCCN1 [Clonidine hydrochloride (Catapres), Clonidine hydrochloride] | yes
Clc1ccc(CCC(Cn2ccnc2)Sc2c(Cl)cccc2Cl)cc1 (centres unmarked) [Butoconazole nitrate] | no
O[C@@H]1CO[C@H]2[C@@H]1OC[C@@H]2O [Isosorbide] | yes
O=c1[nH]c(=O)n([C@H]2C[C@H](O)[C@@H](CO)O2)cc1I [Idoxuridine] | no
Nc1ccc(S(N)(=O)=O)cc1 [Sulfanilamide] | no
O=C(O)CCNC(=O)c1ccccc1 [Betamipron] | no
CCn1cc(C(=O)O)c(=O)c2cc(F)c(N3CCNCC3)cc21 [Norfloxacin (Norxacin), Norfloxacin] | no
CC[C@H](C)[C@H](N)C1=N[C@H](C(=O)N[C@@H](CC(C)C)C(=O)N[C@H](CCC(=O)O)C(=O)N[C@H](C(=O)N[C@H]2CCCCNC(=O)[C@H](CC(N)=O)NC(=O)[C@@H](CC(=O)O)NC(=O)[C@H](Cc3cnc[nH]3)NC(=O)[C@@H](Cc3ccccc3)NC(=O)[C@H]([C@@H](C)CC)NC(=O)[C@@H](CCCN)NC2=O)[C@@H](C)CC)CS1 [Bacitracin] ({Ileψ(thiazoline)Cys}-L[dE]IK[dOrn]I[dF]H[dD]N; lactam 4-C) | yes
CC(=O)O[C@]1(C(C)=O)CC[C@H]2[C@@H]3C=C(C)C4=CC(=O)CC[C@]4(C)[C@H]3CC[C@@]21C [Megestrol Acetate] | no
CCOc1ccc(NC(C)=O)cc1 [Phenacetin] | yes
COC(=O)Nc1nc2ccc(Sc3ccccc3)cc2[nH]1 [Fenbendazole (Panacur), Fenbendazole] | yes
CCS(=O)(=O)CCn1c([N+](=O)[O-])cnc1C [tinidazole] | yes
C=CC1=C(C(=O)O)N2C(=O)[C@@H](NC(=O)/C(=N\O)c3csc(N)n3)[C@H]2SC1 [Cefdinir (Omnicef), Cefdinir] | no
CN(C)c1cc(NC(=O)CNC(C)(C)C)c(O)c2c1C[C@H]1C[C@H]3[C@H](N(C)C)C(O)=C(C(N)=O)C(=O)[C@@]3(O)C(O)=C1C2=O [Tigecycline] | yes
CCn1cc(C(=O)O)c(=O)c2ccc(C)nc21 [Nalidixic acid (NegGram), Nalidixic acid] | no
COc1cc(/C=C/C(=O)CC(=O)/C=C/c2ccc(O)c(OC)c2)ccc1O [Curcumin] | no
Oc1c(Cl)cc(Cl)c2cccnc12 [Chloroxine] | no
O=C(N/N=C/c1ccc([N+](=O)[O-])o1)c1ccc(O)cc1 [Nifuroxazide] | yes
CC(C)(C)C(=O)OCOP(=O)(COCCn1cnc2c(N)ncnc21)OCOC(=O)C(C)(C)C [Adefovir Dipivoxil (Preveon, Hepsera), Adefovir Dipivoxil] | no
Nc1c2ccccc2nc2ccccc12 [9-Aminoacridine] | yes
Cc1ccccc1C(OCCN(C)C)c1ccccc1 (centres unmarked) [Orphenadrine citrate (Norflex), Orphenadrine citrate] | no

Data origin: patent US10105357B2
